system: NCI/ADR-RES; assay: NCI tumour cell line growth inhibition, 48 h
The source made the active and inactive calls. Cut-off read from the data, not from the text of the source: active = GI50 up to about 1.1 µM and inactive = higher.
The compounds listed here are annotated with their GI50.

- compound: "CCN1CCN(c2nc3ccccc3c3c2CCOc2ccccc2-3)CC1"
  measurement.label: "GI50"
  experimental.result: "> 46.3 µM (inactive)"
- compound: "O=S1(=O)c2ccccc2C(=NO)c2ccccc21"
  measurement.label: "GI50"
  experimental.result: "57.3 µM (inactive)"
- compound: "C[n+]1[n-]o/c(=N\\N=O)c1-c1cc(-c2/c(=N/N=O)o[n-][n+]2C)cc(-c2/c(=N\\N=O)o[n-][n+]2C)c1"
  measurement.label: "GI50"
  experimental.result: "> 100 µM (inactive)"

In: # value lookup — system NCI/ADR-RES, readout GI50, item CCOC(=O)CC1C(C(=O)OCC)=Cn2c([nH]c3cccc4cccc2c43)=C1C(=O)OCC (stereo not given)
Out: > 100 µM (inactive)

In: GET /values?readout=GI50&system=NCI/ADR-RES&item= Clc1cccc(Cl)c1C1SCc2nc3ncccc3n21 (stereo not given)
Out: > 100 µM (inactive)

In: # returns recorded GI50 (system: NCI/ADR-RES) for CC1(C)C2CC3C(C)(C2)C31c1cc(Cl)ccc1N (stereo not given)
Out: 14.7 µM (inactive)

In: So what GI50 did COc1cccc(C2c3cc4c(cc3OC(C)(N3CCCC3)C2C)OCO4)c1 (stereo not given) get with NCI/ADR-RES?
Out: 6.9 µM (inactive)

In: Field: GI50 (NCI/ADR-RES). Entry: "COC(=O)c1cc(=O)n(-c2ccc3nn(C)nc3c2)cc1C(=O)OC"
Out: > 100 µM (inactive)

In: Which GI50 is reported with NCI/ADR-RES for this entry: [N-]=[N+]=NC(c1cn(C2CC(O)C(CO)O2)c(=O)[nH]c1=O)C(Cl)I (stereo not given) ?
Out: > 100 µM (inactive)

In: Lab note: need GI50 with NCI/ADR-RES for entry "C#C[C@]1(O)CC[C@H]2[C@@H]3CCc4cc(OC(=O)c5cccc6cc7ccccc7nc56)ccc4[C@H]3CC[C@@]21C" , please look it up.
Out: 28.8 µM (inactive)
